# SUBJECT OF TEST: Estrogen receptor beta (Homo sapiens)
# ASSAY NOTES: OT_ER_ERbERb_0480: Odyssey Thera (OT) 8-hour HEK293T Protein-Complementation Assay for Estrogen Receptor-beta/-beta Homodimer (AID 2283357);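 note: active means signal gain over DMSO baseline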
Records with an inconclusive call do not appear. The source made the active and inactive calls. Rule for the calls: active = hit-call score of the fitted dose curve at least 0.9, where 1 is the maximum; inconclusive = response in the unintended direction; inactive = score below 0.9.
Select the correct class. Options are active, inactive and nothing else.

[[record]]
molecule = "C#CC(C)(O)CC(C)C (stereo unspecified)"
subject_of_test = "Estrogen receptor beta (Homo sapiens)"
label_value = "inactive"

[[record]]
molecule = "CCCCCCCCN1CCCC1=O"
subject_of_test = "Estrogen receptor beta (Homo sapiens)"
label_value = "inactive"

[[record]]
molecule = "CCCCCCC(=O)c1ccccc1"
subject_of_test = "Estrogen receptor beta (Homo sapiens)"
label_value = "inactive"

[[record]]
molecule = "C[C@H]1O[C@@H](O[C@H]2[C@@H](O)C[C@H](O[C@H]3[C@@H](O)C[C@H](O[C@H]4CC[C@@]5(C)[C@H](CC[C@@H]6[C@@H]5C[C@@H](O)[C@]5(C)[C@@H](C7=CC(=O)OC7)CC[C@]65O)C4)O[C@@H]3C)O[C@@H]2C)C[C@H](O)[C@@H]1O"
subject_of_test = "Estrogen receptor beta (Homo sapiens)"
label_value = "inactive"

[[record]]
molecule = "CN1C(=O)c2ccccc2C1=O"
subject_of_test = "Estrogen receptor beta (Homo sapiens)"
label_value = "inactive"

[[record]]
molecule = "COc1ccccc1N=Nc1c(S(=O)(=O)O)cc2cc(S(=O)(=O)O)cc(NC(C)=O)c2c1O"
subject_of_test = "Estrogen receptor beta (Homo sapiens)"
label_value = "inactive"

[[record]]
molecule = "COC(=O)c1ccc(C)cc1C1=NC(C)(C(C)C)C(=O)N1 (stereo unspecified) (tested in a mixture with another compound)"
subject_of_test = "Estrogen receptor beta (Homo sapiens)"
label_value = "inactive"

[[record]]
molecule = "CCCCCCC(C)(C)S"
subject_of_test = "Estrogen receptor beta (Homo sapiens)"
label_value = "inactive"


Given "C[Si](C)(C)O[Si](C)(C)C" , state the outcome it received in this test.
inactive

Query CCCCCCCCCCCCCC(=O)OCC(O)CO (stereo unspecified) next
inactive

Query "CC(C)CCCCCCc1ccc(OCCOCCO)cc1" next
active

---

# SUBJECT OF TEST: Nuclear receptor subfamily 1 group I member 3 (Homo sapiens)
# ASSAY NOTES: ATG_CAR_TRANS: Attagene TRANS-FACTORIAL HepG2 Assay for human Constitutive Androstane Receptor (CAR) (AID 2282969);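 note: activators raise reporter mRNA above DMSO so AC50 marks induction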
# SETUP CONDITIONS: HepG2 Attagene TRANS-FACTORIAL CAR reporter
# Procedure: ATG_TRANS is a cell-based, multiplexed-readout assay that uses HepG2, a human liver cell line, with measurements taken at 24 hours after chemical dosing in a 24-well plate.ATG_CAR_TRANS is one of 30 assay component(s) measured or calculated from the ATG_TRANS assay. […] This assay endpoint, ATG_CAR_TRANS, was analyzed in the positive analysis fitting direction relative to DMSO as the negative control and baseline of activity. […]
Inconclusive results are not listed. Active and inactive are the calls of the source. The calls were made as follows: active = hit-call score of the fitted dose curve at least 0.9, where 1 is the maximum; inconclusive = response in the unintended direction; inactive = score below 0.9.
Select the correct class. Options are active, inactive and nothing else.

Illustrative cases are given below, each with its answer.
[[record]]
compound = "CC(C)C(OC(=O)c1ccccc1)C(C)(C)COC(=O)c1ccccc1 (stereo not drawn)"
subject_of_test = "Nuclear receptor subfamily 1 group I member 3 (Homo sapiens)"
label_value = "inactive"

[[record]]
compound = "Cc1cc(CCC(=O)OCCOCCOCCOC(=O)CCc2cc(C)c(O)c(C(C)(C)C)c2)cc(C(C)(C)C)c1O"
subject_of_test = "Nuclear receptor subfamily 1 group I member 3 (Homo sapiens)"
label_value = "inactive"

[[record]]
compound = "CCCC(=O)OC(C)(C)Cc1ccccc1"
subject_of_test = "Nuclear receptor subfamily 1 group I member 3 (Homo sapiens)"
label_value = "inactive"


Given "CCOCCOCCOCC" , state the outcome it received in this test.
inactive

Query CCCCCCC(CO)CCCC (stereo not drawn) next
inactive

Query "COc1ccc(COC(C)=O)cc1" next
inactive

Query "CCCCCCCC/C=C\CCCCCCCC(=O)OCC" next
inactive

Query "CN(C)C(=S)SC(=S)N(C)C" next
inactive

---

# ASSAY NOTES: ATG_PXRE_CIS: Attagene CIS-FACTORIAL HepG2 Assay for human Pregnane X Receptor Element (PXRE) (AID 2282957)
# SETUP CONDITIONS: HepG2 Attagene CIS-FACTORIAL PXRE reporter, mRNA; actives raise or lower the signal
Activity calls are given as the source filed them. How the source made its calls: active means hit-call score of the fitted dose curve at least 0.9, where 1 is the maximum; inactive means score below 0.9.
Select the correct class. Options are active, inactive and nothing else.

Illustrative cases are given below, each with its answer.
[[record]]
compound = "CC(C)C(OC(=O)c1ccccc1)C(C)(C)COC(=O)c1ccccc1 (centres undefined)"
label_value = "active"

[[record]]
compound = "CCO/C=C1\\N=C(c2ccccc2)OC1=O"
label_value = "active"

[[record]]
compound = "CCCOC(=O)c1c(Cl)c(Cl)c(Cl)c(Cl)c1C(=O)OCCC"
label_value = "active"

[[record]]
compound = "CCc1ccc(O)cc1"
label_value = "active"

[[record]]
compound = "CC(C)c1ccccc1O"
label_value = "active"

[[record]]
compound = "CCC(=O)O[C@@H]1C[C@H]2CC[C@]1(C)C2(C)C"
label_value = "inactive"

[[record]]
compound = "CCCCCC(=O)CC"
label_value = "active"

[[record]]
compound = "CC1=C(Br)C(=O)C(Br)=C/C1=C(/c1ccccc1S(=O)(=O)O)c1cc(Br)c(O)c(Br)c1C"
label_value = "active"

[[record]]
compound = "OCCOCCN1CCN(C2=Nc3ccccc3Sc3ccccc32)CC1"
label_value = "active"

[[record]]
compound = "NCc1ccco1"
label_value = "inactive"


Given "O=C(O)CNc1ccccc1" , state the outcome it received in this test.
active

Query "O=C(O)c1cccnc1C(=O)O" next
inactive

Query "O=P(O)(O)O" next
inactive

Query CCCCCCC(O)CCCCCCCCCCC(=O)O (centres undefined) next
inactive

---

# Read-out: E-selectin (Homo sapiens) (UniProt P16581)
# Sequence (P16581 whole entry, looked up): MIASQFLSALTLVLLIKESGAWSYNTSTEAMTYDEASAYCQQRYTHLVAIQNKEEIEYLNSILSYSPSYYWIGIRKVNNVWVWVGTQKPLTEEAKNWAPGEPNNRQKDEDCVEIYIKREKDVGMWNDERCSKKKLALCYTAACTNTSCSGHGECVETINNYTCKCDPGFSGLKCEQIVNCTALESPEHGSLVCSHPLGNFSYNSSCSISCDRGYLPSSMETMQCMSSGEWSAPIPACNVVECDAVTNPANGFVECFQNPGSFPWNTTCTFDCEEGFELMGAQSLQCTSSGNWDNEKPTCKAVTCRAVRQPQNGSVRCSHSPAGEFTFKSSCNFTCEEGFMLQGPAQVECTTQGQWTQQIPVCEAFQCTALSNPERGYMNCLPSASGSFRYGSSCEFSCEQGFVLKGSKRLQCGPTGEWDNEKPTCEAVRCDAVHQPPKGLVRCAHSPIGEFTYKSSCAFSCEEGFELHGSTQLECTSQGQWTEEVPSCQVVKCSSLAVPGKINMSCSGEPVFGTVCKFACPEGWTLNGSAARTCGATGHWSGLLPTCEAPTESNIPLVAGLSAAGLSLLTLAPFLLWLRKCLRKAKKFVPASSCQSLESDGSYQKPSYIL
# ASSAY NOTES: BSK_LPS_Eselectin: BioMAP Diversity Plus: LPS Assay for Eselectin Biomarker Activity (AID 2283077)
# SETUP CONDITIONS: primary human HUVEC with PBMC; actives raise or lower the signal
The source made the active and inactive calls. Rule for the calls: active = hit-call score of the fitted dose curve at least 0.9, where 1 is the maximum; inactive = score below 0.9.
Select the correct class. Options are 1 = active, 0 = inactive and nothing else.

[[record]]
compound_structure = "IC(I)I"
label_value = 0

[[record]]
compound_structure = "CC=Cc1ccc(OCC)c(O)c1"
label_value = 0


We next turn to a different compound, shown below.
Given "Oc1c(Cl)cc(Cl)c(Cl)c1Cc1c(O)c(Cl)cc(Cl)c1Cl" , state the outcome it received in this test.
1

---

# SUBJECT OF TEST: Nuclear receptor subfamily 1 group I member 2 (Homo sapiens)
# ASSAY NOTES: ATG_PXR_TRANS: Attagene TRANS-FACTORIAL HepG2 Assay for human Pregnane X Receptor (PXR) (AID 2283008)
Results filed as inconclusive are left out. Activity calls are given as the source filed them. Rule for the calls: active = hit-call score of the fitted dose curve at least 0.9, where 1 is the maximum; inconclusive = response in the unintended direction; inactive = score below 0.9.
Select the correct class. Options are y (active), n (inactive) and nothing else.

[[record]]
compound = "CC(C)(N=C=O)c1cccc(C(C)(C)N=C=O)c1"
label_value = "y"


Given "c1ccc(CCc2ccccc2)cc1" , state the outcome it received in this test.
y

---

# SUBJECT OF TEST: Transcription factor Sp1 (Homo sapiens) (UniProt P08047)
# Sequence (P08047 whole entry, looked up): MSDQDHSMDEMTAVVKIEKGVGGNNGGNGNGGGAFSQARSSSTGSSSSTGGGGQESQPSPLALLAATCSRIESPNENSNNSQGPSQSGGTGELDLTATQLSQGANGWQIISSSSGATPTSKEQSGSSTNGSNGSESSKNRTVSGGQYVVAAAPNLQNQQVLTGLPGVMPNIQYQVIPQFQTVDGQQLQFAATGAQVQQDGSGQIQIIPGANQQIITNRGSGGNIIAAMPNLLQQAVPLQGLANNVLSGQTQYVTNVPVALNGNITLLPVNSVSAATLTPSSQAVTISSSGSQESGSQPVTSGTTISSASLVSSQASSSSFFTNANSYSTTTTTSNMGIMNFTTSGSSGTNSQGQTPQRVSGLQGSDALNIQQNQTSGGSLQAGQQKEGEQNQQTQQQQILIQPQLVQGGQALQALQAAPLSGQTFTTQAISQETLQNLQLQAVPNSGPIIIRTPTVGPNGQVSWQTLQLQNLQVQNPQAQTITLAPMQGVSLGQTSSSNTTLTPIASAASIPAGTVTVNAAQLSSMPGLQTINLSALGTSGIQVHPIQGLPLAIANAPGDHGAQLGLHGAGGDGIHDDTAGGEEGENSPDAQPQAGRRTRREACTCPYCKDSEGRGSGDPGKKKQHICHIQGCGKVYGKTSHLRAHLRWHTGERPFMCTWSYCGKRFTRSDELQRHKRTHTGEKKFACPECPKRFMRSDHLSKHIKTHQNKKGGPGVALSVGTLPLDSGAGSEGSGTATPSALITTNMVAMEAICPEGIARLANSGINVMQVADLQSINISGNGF
# ASSAY NOTES: ATG_Sp1_CIS: Attagene CIS-FACTORIAL HepG2 Assay for human Specificity Protein 1 (Sp1) (AID 2282961)
# SETUP CONDITIONS: HepG2 Sp1 cis-reporter transcription, actives raise or lower the signal
Calls of active or inactive are those of the source. The calls were made as follows: active = hit-call score of the fitted dose curve at least 0.9, where 1 is the maximum; inactive = score below 0.9.
Select the correct class. Options are active, inactive and nothing else.

Illustrative cases are given below, each with its answer.
[[record]]
compound = "Cc1ccc(S(N)(=O)=O)cc1"
label_value = "inactive"

[[record]]
compound = "CC=Cc1ccc(OC)c(OC)c1"
label_value = "inactive"

[[record]]
compound = "CC=Cc1ccc(OCC)c(O)c1"
label_value = "inactive"

[[record]]
compound = "Oc1c(Cl)cc(Cl)c(Cl)c1Cc1c(O)c(Cl)cc(Cl)c1Cl"
label_value = "inactive"

[[record]]
compound = "c1ccc(CCc2ccccc2)cc1"
label_value = "active"

[[record]]
compound = "CCCCCCCC(=O)OCCCCCC"
label_value = "inactive"

[[record]]
compound = "CCCCC1CCC(O)CC1 (stereo not drawn)"
label_value = "inactive"

[[record]]
compound = "COc1ccc(OC)c(N=Nc2c(O)ccc3ccccc23)c1"
label_value = "inactive"


We next turn to a different compound, shown below.
Given "O=C1OC(=O)c2c(Br)c(Br)c(Br)c(Br)c21" , state the outcome it received in this test.
inactive

---

# SUBJECT OF TEST: CCAAT/enhancer-binding protein beta (Homo sapiens) (UniProt P17676)
# Sequence (P17676 whole entry, looked up): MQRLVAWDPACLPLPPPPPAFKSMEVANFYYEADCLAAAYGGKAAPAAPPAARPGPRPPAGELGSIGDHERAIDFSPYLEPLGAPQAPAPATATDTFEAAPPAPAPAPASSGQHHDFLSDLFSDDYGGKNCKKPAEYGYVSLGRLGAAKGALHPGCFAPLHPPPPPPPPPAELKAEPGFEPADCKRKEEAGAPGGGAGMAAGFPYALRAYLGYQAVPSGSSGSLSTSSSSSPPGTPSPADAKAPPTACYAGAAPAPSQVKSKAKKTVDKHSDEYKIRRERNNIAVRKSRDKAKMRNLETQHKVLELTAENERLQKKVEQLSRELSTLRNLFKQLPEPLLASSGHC
# ASSAY NOTES: ATG_C_EBP_CIS: Attagene CIS-FACTORIAL HepG2 Assay for human CCAAT/Enhancer Binding Protein (C/EBP) beta (AID 2282927)
# SETUP CONDITIONS: HepG2 Attagene cis-factorial transcription factor reporter; actives raise or lower the signal
Activity calls are given as the source filed them. The calls were made as follows: active = hit-call score of the fitted dose curve at least 0.9, where 1 is the maximum; inactive = score below 0.9.
Select the correct class. Options are active, inactive and nothing else.

[[record]]
compound = "COc1cc([C@@H]2c3cc4c(cc3[C@@H](O[C@@H]3O[C@@H]5CO[C@@H](C)O[C@H]5[C@H](O)[C@H]3O)[C@H]3COC(=O)[C@H]23)OCO4)cc(OC)c1O"
label_value = "inactive"


Given "BrCc1cccc(Oc2ccccc2)c1" , state the outcome it received in this test.
inactive

Query "C=CCOC(=O)CCCCCC" next
inactive

Query CCCCC(CC)COC(C)=O (centres undefined) next
inactive

Query CCCCC(CC)C(=O)OC(C)C (centres undefined) next
inactive

Query "O=CN1CCOCC1" next
inactive

Query "Cc1[nH]c(=O)c(C#N)cc1-c1ccncc1" next
inactive

Query "Cc1c(Cl)cccc1[N+](=O)[O-]" next
inactive

Query "OCc1ccc(Cl)cc1Cl" next
inactive
